Entry source: patent US20240301052A1

- system: T1, human SLC34A2 (human, UniProt O95436 1-690)
- T1 construct: whole, on cells; also called human solute carrier 34 A2; NaPi2b
- T1 sequence (looked up): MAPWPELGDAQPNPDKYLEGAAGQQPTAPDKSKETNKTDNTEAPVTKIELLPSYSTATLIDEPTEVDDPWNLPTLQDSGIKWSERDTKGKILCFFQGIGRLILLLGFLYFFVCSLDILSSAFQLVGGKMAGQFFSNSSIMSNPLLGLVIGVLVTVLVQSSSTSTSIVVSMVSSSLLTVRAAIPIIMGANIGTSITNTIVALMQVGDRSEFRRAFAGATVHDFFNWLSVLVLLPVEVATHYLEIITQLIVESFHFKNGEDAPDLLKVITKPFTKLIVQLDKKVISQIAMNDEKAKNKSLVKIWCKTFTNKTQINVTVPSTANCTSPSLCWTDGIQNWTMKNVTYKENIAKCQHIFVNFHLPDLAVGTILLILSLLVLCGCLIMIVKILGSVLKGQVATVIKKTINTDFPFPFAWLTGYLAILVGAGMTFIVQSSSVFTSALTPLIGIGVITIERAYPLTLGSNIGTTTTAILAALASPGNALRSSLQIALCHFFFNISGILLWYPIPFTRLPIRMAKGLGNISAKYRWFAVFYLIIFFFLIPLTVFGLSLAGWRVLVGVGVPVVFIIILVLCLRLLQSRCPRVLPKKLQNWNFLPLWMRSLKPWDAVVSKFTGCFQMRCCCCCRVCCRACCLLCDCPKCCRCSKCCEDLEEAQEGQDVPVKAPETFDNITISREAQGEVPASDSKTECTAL
- experimentalProtocol: FACS, RMG-1 cells
experimentalReadout: Top (MFI)
Kindly answer with a numeric value in MFI, unit omitted.

{"columns": ["binder", "Top / MFI"],
 "data": [
  ["91C9F1.p1 hIgG1 (antibody, V domains shown, PTM-derisked chimeric, hIgG1; also called 91C9F1.pl hIgG1) VH: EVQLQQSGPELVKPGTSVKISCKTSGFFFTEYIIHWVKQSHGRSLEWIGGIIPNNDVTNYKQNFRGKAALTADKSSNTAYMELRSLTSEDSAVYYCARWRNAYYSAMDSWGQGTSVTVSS VL: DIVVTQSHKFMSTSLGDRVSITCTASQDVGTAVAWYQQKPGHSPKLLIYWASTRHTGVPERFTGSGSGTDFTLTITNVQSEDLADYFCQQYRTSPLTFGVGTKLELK", 9690]
]}

# next binder below
Would you mind telling me what Top value was observed for xi63A11D5B4 hIgG1 (antibody, V domains shown, chimeric, hIgG1) VH: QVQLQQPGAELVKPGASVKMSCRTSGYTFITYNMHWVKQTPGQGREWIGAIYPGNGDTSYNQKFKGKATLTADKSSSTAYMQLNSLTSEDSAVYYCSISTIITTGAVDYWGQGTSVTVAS VL: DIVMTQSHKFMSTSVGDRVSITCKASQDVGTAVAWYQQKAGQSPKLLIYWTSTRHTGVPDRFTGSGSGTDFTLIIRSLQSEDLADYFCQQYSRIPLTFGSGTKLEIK ?
11200
